B1: scFv; the commonest letter at each place (parent)
chain 1: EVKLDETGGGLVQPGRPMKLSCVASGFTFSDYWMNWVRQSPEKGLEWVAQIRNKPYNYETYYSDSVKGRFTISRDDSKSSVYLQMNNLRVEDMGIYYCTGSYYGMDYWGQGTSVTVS
chain 2: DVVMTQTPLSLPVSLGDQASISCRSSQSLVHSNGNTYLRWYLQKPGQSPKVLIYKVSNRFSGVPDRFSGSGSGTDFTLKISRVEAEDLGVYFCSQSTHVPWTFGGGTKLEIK

Variants of: B1
test_summary: yeast surface expression (ratio to wild type); higher = more expressed
test_context: format: scFv 4-4-20, heavy + light
measured_endpoint: yeast surface expression
Give the figure only, with no unit attached.

The examples below pair each entry with its known result.
chain 1 M34G N35Q; 0.503
chain 1 S101Y Y102G; 0.796
chain 1 Y103S M105R; 0.819
chain 1 Y102T Y103W; 0.819
chain 1 M34Y V37M; 0.807

The reported value for chain 1 T28F F29R in terms of yeast surface expression is 0.797

The reported value for chain 1 Y32P M34N in terms of yeast surface expression is 0.503
